Target: T1, SNAP tagged-CXC4 receptor labeled with terbium (Tag-lite CXCR4 cells, HEK293) (UniProt P61073 1-352, SNAP tag labeled with terbium fluorescent dye)
T1 construct: whole, on cells; Bought frozen cells (PerkinElmer-CisBio), HEK293 transiently expressing the receptor; also called terbium labeled CXCR receptor
T1 sequence (P61073 whole entry): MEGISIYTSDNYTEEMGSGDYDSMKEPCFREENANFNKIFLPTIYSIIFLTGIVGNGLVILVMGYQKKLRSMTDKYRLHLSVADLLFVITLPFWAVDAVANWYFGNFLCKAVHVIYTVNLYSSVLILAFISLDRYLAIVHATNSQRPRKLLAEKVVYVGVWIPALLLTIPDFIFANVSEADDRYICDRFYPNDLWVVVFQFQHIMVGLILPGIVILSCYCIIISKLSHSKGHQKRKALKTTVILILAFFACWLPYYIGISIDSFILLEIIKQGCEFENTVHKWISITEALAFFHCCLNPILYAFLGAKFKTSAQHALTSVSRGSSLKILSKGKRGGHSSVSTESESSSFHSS
Assay: HTRF competition on Tag-lite CXCR4 HEK293 cells; competitor labelled CXCL12
pIC50: −log10 of the molar value. Square brackets hold non-standard residues; d marks the D form. Ends that are not written are not given here.
Lab note: compare pIC50 against 7. Equal or greater, write 1.0. Smaller, write 0.0.

# binder, assigned_class
data = [
    ("LERYHHSVRSSLRPFTK [SEQ ID NO: 60]", 1.0),
    ("LDRYHHSVRSSLRPYTK [SEQ ID NO: 7]", 1.0),
    ("[dA]RRYHHSVRSSLRPYTK [SEQ ID NO: 33]", 1.0),
    ("LERYHHS[dA]RSSLRPYT [SEQ ID NO: 5]", 1.0),
]

## Task Given the entry LERFHHS[dA]RSSLRPYTK [SEQ ID NO: 55] , answer whether its pIC50 meets or surpasses 7.
## Result 1.0

## Task Given the entry LERYHHSVRSSLRPYSK [SEQ ID NO: 75] , answer whether its pIC50 meets or surpasses 7.
## Result 1.0

## Task Given the entry LRRYHHSVRSSLRPYSK [SEQ ID NO: 72] , answer whether its pIC50 meets or surpasses 7.
## Result 0.0

## Task Given the entry LRRYHHSVRSSLRGYTK [SEQ ID NO: 79] , answer whether its pIC50 meets or surpasses 7.
## Result 0.0

## Task Given the entry LRRYHHSVRSSLRPFTK [SEQ ID NO: 59] , answer whether its pIC50 meets or surpasses 7.
## Result 0.0

## Task Given the entry LRRYHHSVRTSLRPYTK [SEQ ID NO: 70] , answer whether its pIC50 meets or surpasses 7.
## Result 0.0

## Task Given the entry LRRYHHTVRSSLRPYTK [SEQ ID NO: 38] , answer whether its pIC50 meets or surpasses 7.
## Result 0.0

## Task Given the entry LRRYHHSVDSSLRPYTK [SEQ ID NO: 66] , answer whether its pIC50 meets or surpasses 7.
## Result 0.0

## Task Given the entry LERYHHSVRTSLRPYTK [SEQ ID NO: 73] , answer whether its pIC50 meets or surpasses 7.
## Result 1.0

## Task Given the entry LRRYHHSVRSSLDPYTK [SEQ ID NO: 67] , answer whether its pIC50 meets or surpasses 7.
## Result 0.0

## Task Given the entry LERFHHSVRSSLRPYTK [SEQ ID NO: 54] , answer whether its pIC50 meets or surpasses 7.
## Result 1.0
